This collection of values is drawn from ChEMBL document CHEMBL1201862.

Tested on: DMS-273
Measurement description: NCI tumour cell line growth inhibition, 48 h
Active and inactive are the calls of the source. Cut-off read from the data, not from the text of the source: active = GI50 up to about 1.1 µM and inactive = higher.
Outcomes: true = active, false = inactive

* O=C(O)CCC1CCc2cccc(O)c2C1=O (stereo not drawn) | false
* CCCC1C[C@H]2CCCCN2[C@H]2CCCN12 (stereo partly drawn) | false
* CCOc1ccc(/C=C(\Cl)c2ccc(OC)cc2)cc1 | false
* CC(C)(C)C1CCC(=O)C(C(O)CC2CC(=O)N(c3ccccc3)C(=O)C2)C1 (stereo not drawn) | false
* CCOC(=O)C(Cc1ccc(N=NN(C)C)cc1)NC(=O)CC1c2ccccc2-c2ccccc21 (stereo not drawn) | false
* CN(C)/C(N)=N\C#N | false
* N#CCCN(c1ccc(C=O)cc1)S(=O)(=O)c1ccccc1 | false
* COS(=O)(=O)OCCC(NC(=O)OCc1ccccc1)C(=O)OCc1ccccc1 (stereo not drawn) | false
* NC(=O)CCC(NCc1c2ccccc2[n+]([O-])c2ccccc12)C(=O)O (stereo not drawn) | false
* N#C/C(=C(/S)Nc1ccccc1)c1nc2ccccc2[nH]1 | false
* CC1=Nc2c(ccc3c2C(=O)c2ccccc2C3=O)NC(c2cccc3c2CCC3)C1 (stereo not drawn) | false
* CCC(C)(C)NS(=O)(=O)c1ccccc1 | false
* CC1(O)CCC2(C)C(=O)C1(C)CCC21OCCO1 (stereo not drawn) | false
* O=C1C2C3CC4C5C3C1C5C1(SCCS1)C42 (stereo not drawn) | false
* CCCCCCCC(CC(=O)NC(CO)C(=O)NC(CO)CC(C)C)OC(=O)CC(CCCCCCC)OC(=O)CC(CCCCCCC)OC1OC(C)C(O)C(OC2OC(C)C(O)C(O)C2O)C1O (stereo not drawn) | false
* NC(=O)c1c[se]c(C2OC(COP(=O)(O)CP(=O)(O)OCC3OC(n4cnc5c(N)ncnc54)C(O)C3O)C(O)C2O)n1 (stereo not drawn) | false
* Cc1cc2c3c(coc3c1-c1c(C)cc3c4c(coc14)C(=O)C(O)=C3C(C)C)C(=O)C(O)=C2C(C)C | false
* c1ccc(-c2nnc(-c3nsc4ccccc34)o2)cc1 | false
* CC(C)C(=O)/C=C/c1ccc(Cl)cc1 | false
* CC1(C)C(=O)C(C)(C)C1=NN | false
* COc1cc(-c2ccc(NC(=O)SCCC(=O)O)cc2OC)ccc1NC(=O)SCCC(=O)O | false
* O=c1cc(O)cc2n1CCC2 | false
* O=C1NC(=O)C2C3C=CC(C12)C1C2C(=O)NC(=O)C2C31 (stereo not drawn) | false
* COc1ccc(Cc2nn(C3OC(COC(C)=O)C(OC(C)=O)C(OC(C)=O)C3OC(C)=O)c(=S)n(-c3ccc(OC)cc3)c2=O)cc1 (stereo not drawn) | false
* COC(=O)c1cccc(N[C@@H]2c3cc4c(cc3C(c3cc(OC)c(O)c(OC)c3)[C@H]3C(=O)OCC32)OCO4)c1 (stereo partly drawn) | true
* CC(=O)C1Cn2c(=O)c3cc4ccccc4cc3c(=O)n2C=C1C (stereo not drawn) | false
* Cc1ccc(S(=O)(=O)Nc2cccc3c(=O)nc[nH]c23)cc1 | false
* COc1cc2ccc3c4cc(OC)c(OC)cc4c[n+](C)c3c2cc1O | false
* c1ccc2c3c(ccc2c1)-c1[nH]ncc1CCO3 | false
* COc1ccc(C[C@]23CCC(=O)N2CCc2cc(OC)c(O)cc23)cc1O | false
* CCCCNC(=O)NNC(=O)c1cc(/C=C/c2cccc([N+](=O)[O-])c2)ncn1 | false
* CCN(CC)CCNC(=O)c1ccccc1NC(=O)C(=O)Nc1ccccc1C(=O)NCCN(CC)CC | false
* FC(F)(F)c1ccc(/C=N/C23CC4CC(CC(C4)C2)C3)cc1 | false
